Target: human IGF1R cytoplasmic domain (Homo sapiens, UniProt P08069)
Construct: The human IGF1R cytoplasmic domain was cloned; made in house; host or cells: SF21 insect cells (baculovirus)
Sequence (P08069 960-1367 limits assumed): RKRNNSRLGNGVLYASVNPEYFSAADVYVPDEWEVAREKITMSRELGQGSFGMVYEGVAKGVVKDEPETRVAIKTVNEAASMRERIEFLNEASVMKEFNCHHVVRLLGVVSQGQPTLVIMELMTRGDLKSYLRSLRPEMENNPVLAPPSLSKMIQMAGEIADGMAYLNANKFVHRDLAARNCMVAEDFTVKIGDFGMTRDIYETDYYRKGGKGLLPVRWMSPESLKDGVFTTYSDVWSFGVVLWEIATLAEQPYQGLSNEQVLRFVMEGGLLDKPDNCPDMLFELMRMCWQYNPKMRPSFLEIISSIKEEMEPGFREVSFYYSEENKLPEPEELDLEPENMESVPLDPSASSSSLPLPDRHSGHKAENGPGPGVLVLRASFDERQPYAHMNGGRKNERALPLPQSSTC
Test: IGF1R autophosphorylation inhibition, time resolved fluorescence (HTRF) assay
Type: biochemical
Conditions: 10 μM; read-out: IGF1R % inhib at 10 μM
Endpoint Name: inhibition at 10 µM (%)

Would you please look over these solved cases?
CC(C)(C)c1ccc(-c2n[nH]c3ccc(NS(=O)(=O)c4ccccc4S(C)(=O)=O)cc23)cc1 [Example 197] | 0
Nc1n[nH]c2ccc(NS(=O)(=O)c3c(Cl)cccc3Cl)cc12 [Example 41] | 18

I: CCOc1ccccc1-c1n[nH]c2ccc(NS(=O)(=O)c3ccccc3S(C)(=O)=O)cc12 [Example 189]
II: CS(=O)(=O)c1ccccc1S(=O)(=O)Nc1ccc2[nH]nc(/C=C/c3ccc(Cl)cc3)c2c1 [Example 76]
Looking only at measured inhibition at 10 µM, which entry is lower, I or II ? In your reply, give the label of the chosen option.
I

1: CS(=O)(=O)c1ccccc1S(=O)(=O)Nc1ccc2[nH]nc(-c3cc(F)cc(F)c3)c2c1 [Example 102]
2: CS(=O)(=O)c1ccccc1S(=O)(=O)Nc1ccc2[nH]nc(-c3cccc4c3oc3ccccc34)c2c1 [Example 169]
Consider 1 and 2 . Which of these has its inhibition at 10 µM at a higher number? Refer to your chosen entry by its label in the reply.
1
(1: 74%, 2: 13%)

1: Cc1cc(C)c(S(=O)(=O)Nc2ccc3[nH]nc(-c4ccccc4)c3c2)c(C)c1 [Example 115]
2: CS(=O)(=O)c1ccccc1S(=O)(=O)Nc1ccc2[nH]nc(-c3ccc(Cl)s3)c2c1 [Example 181]
3: CS(=O)(=O)c1ccccc1S(=O)(=O)Nc1ccc2[nH]nc(-c3cc(Cl)ccc3Cl)c2c1 [Example 225]
Arrange by inhibition at 10 µM, high to low. // list labels; follow requested order
1, 2, 3
(1: 79%, 2: 55%, 3: 27%)

meta.source: patent US6858638B2
